Taken from ChEMBL document CHEMBL4184094.

Test: Oral bioavailability in rat
Type: ADME, organism-based
Settings: in vivo
readout: bioavailability (%)
Express the result in % but write the number alone.

# input Param item = "Cl.O=C(O)CCN1CCC2(CC1)COc1cc(/C=C/c3c(Cl)cccc3Cl)ccc12" ; retrieve measured bioavailability.
# output 73

====

# EC50 values compiled below
Molecular target: Sphingosine 1-phosphate receptor 1 (Homo sapiens)
Sequence (P21453 whole entry): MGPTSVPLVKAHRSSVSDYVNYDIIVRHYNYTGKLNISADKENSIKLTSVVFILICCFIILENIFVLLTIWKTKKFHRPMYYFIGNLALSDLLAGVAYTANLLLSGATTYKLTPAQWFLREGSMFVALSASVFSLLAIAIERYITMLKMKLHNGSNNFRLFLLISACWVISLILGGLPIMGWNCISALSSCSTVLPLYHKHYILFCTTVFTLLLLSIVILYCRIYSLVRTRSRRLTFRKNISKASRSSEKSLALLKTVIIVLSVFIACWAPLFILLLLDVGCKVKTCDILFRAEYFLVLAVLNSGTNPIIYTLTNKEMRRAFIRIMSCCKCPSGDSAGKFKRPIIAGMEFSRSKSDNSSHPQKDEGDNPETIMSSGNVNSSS
Assay: Agonist activity at human S1P1 receptor expressed in CHO cells assessed as increase in calcium flux by aequorin-derived luminescence assay
Expressed in µM, but write only the number.

// known answers, use as guide
compound	EC50 (µM)
Cl.O=C(O)CCN1CCC2(CC1)COc1c2ccc(OCc2c(Cl)cccc2Cl)c1F	1
O=C(O)CCCN1CCC2(CC1)COc1cc(OCc3c(Cl)cccc3Cl)ccc12	5.01
O=C(O)CCN1CCC2(CC1)COc1cc(OCc3c(Cl)cccc3OC(F)(F)F)ccc12	3.98
O=C(O)CN1CCC2(CC1)COc1cc(OCc3c(Cl)cccc3Cl)ccc12	6.31
CCc1cccc(CC)c1COc1ccc2c(c1)OCC21CCN(CCC(=O)O)CC1	1.58

# input Returns the measured EC50 for the input compound. Input: CCc1cccc(Cl)c1COc1ccc2c(c1)OCC21CCN(CC(C)C(=O)O)CC1.Cl (stereo not given)
# output 0.316

====

Parameter: EC50. Scope: all listed entries.
Molecular target: UniProt Q99500
Sequence (Q99500 whole entry): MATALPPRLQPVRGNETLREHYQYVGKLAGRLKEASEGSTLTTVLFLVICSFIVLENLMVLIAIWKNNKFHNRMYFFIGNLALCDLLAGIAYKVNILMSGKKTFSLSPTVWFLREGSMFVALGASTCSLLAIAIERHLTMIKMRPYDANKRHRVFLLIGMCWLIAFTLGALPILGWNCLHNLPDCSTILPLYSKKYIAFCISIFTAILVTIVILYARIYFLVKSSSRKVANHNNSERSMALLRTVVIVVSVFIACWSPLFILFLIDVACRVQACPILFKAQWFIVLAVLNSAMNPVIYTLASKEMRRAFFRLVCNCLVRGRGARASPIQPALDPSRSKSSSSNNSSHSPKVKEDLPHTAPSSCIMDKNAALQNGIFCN
Test: Agonist activity at human S1P3 receptor expressed in CHO cells assessed as increase in calcium flux by aequorin-derived luminescence assay

Would you please look over these solved cases?
smiles_code	target_or_system	assay_result
Cl.O=C(O)CCN1CCC2(CC1)COc1cc(OCc3c(Cl)cccc3Cl)ccc12	UniProt Q99500	> 10 µM
Cl.O=C(O)CCN1CCC2(CC1)COc1cc(SCc3c(Cl)cccc3Cl)ccc12	UniProt Q99500	3.98 µM
O=C(O)CCN1CCC2(CC1)COc1cc(OCc3c(Cl)cccc3C(F)(F)F)ccc12	UniProt Q99500	> 10 µM

# input // EC50 lookup, key: "O=C(O)CCN1CCC2(CC1)COc1cc(OCc3ccccc3)ccc12"
# output > 10 µM

# input GET /values?readout=EC50&item= "O=C(O)CCN1CCC2(CC1)COc1cc(OCc3cccc(Cl)c3Cl)ccc12"
# output > 10 µM

====

Molecular target: Sphingosine 1-phosphate receptor 5 (Homo sapiens)
Sequence (Q9H228 whole entry): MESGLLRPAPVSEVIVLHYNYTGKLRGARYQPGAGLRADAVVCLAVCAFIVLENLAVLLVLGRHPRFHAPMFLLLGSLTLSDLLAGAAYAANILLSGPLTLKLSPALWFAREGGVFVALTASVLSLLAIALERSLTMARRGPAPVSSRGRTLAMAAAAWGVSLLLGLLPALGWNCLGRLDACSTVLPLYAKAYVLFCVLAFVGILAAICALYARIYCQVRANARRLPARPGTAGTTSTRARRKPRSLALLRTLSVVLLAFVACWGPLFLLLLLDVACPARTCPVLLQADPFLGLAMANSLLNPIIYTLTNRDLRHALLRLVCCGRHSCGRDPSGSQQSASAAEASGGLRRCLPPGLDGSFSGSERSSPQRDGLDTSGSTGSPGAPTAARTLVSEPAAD
Assay: Agonist activity at human S1P5 receptor expressed in CHO cells assessed as increase in calcium flux by aequorin-derived luminescence assay
readout: pEC50
Scale note: pEC50 = -log10(concentration in M).

compound	assay_result
Cl.O=C(O)CCN1CCC2(CC1)COc1cc(C#Cc3ccccc3)ccc12	7.40
Cl.O=C(O)CN1CCC2(CC1)COc1cc(S(=O)(=O)Cc3c(Cl)cccc3Cl)ccc12	6.10
CCc1cccc(Cl)c1CSc1ccc2c(c1)OCC21CCN(CCC(=O)O)CC1.Cl	8.60
O=C(O)CCN1CCC2(CC1)COc1cc(OCc3ccccc3)ccc12	6.00
O=C(O)CN1CCC2(CC1)COc1cc(OCc3c(Cl)cccc3Cl)ccc12	7.50
CCCCCCCCc1ccc(CCC(N)(CO)CO)cc1	5.50
Cl.O=C(O)CCN1CCC2(CC1)COc1cc(OCc3c(Cl)cccc3Cl)ccc12	6.80
O=P(O)(O)OCCN1CCC2(CC1)COc1cc(OCc3c(Cl)cccc3Cl)ccc12	7.70
CC(CN1CCC2(CC1)COc1cc(OCc3c(Cl)cccc3Cl)ccc12)C(=O)O (centres undefined)	7.20
Cl.O=C(O)CCN1CCC2(CC1)COc1c2ccc(OCc2c(Cl)cccc2Cl)c1F	8.20

# input Give its pEC50 value. Item: "CC(C)c1cccc(Cl)c1COc1ccc2c(c1)OCC21CCN(CCC(=O)O)CC1.Cl"
# output 7.60
